I'd be grateful if you could share measured protein stability index for these entries.
# ASSAY_SUMMARY: protein stability index of a GFP-peptide fusion (GPS, HEK-293T) (PSI 1-6); higher = more stable;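 further: 24-mer peptide tiles fused after GFP, lentivirally expressed, FACS-sorted into six equal bins by GFP/DsRed ratio, decoded by Illumina sequencing, PSI is the read-weighted mean bin number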
# EXPERIMENTAL_CONTEXT: treatment: MLN4924 1 uM, 8 h; c terminus: a fixed tail appended

// returns reported protein stability index for input GMASFRFPETTFISVTAYQNPQIT [TBX6] 2.29

What do you get for LYFKDKIFNVAIPRFHMACPTFRV [FBXO3] ? 2.65

What do you get for ATQMMVDIDGDVLVFLELAQFHCA [RHOBTB2] ? 2.89

Now try AGLNKDKETEERTDGERVAEVAPE [SDE2] . 5.63

Similarly, EVKRAFFSKSKELHPDRDPGNPSL [DNAJC4] ? 4.03

Cool, now RPSFNRTPIPWLSSGEPVDYNVDI [MYOZ1] 3.66

# repeat for SKYCYGPQGSRSPYIPPHAALCLE [FKBP8] 2.74

Another sequence to check: SESSPSDFSVSLKASGKNKHFKVQ [NCK2] 4.33

SSHHSHSYIGLPYADHNYGARPPP [KMT2E] ? 3.7

Lookup VKYNSCADRPFSAPWWFWLSLTGV [POMT2] 2.72

Repeat for the following sequence: GYSDRDGYGRDRDYSDHPSGGSYR [RBMX] 4.81

Try the sequence CTDFCLRNLDGTLGYLLDKETLRL [ZER1] 2.13

Further, for KQRGYFFLDERLYCESHAKARVKP [PDLIM4] ? 3.11

---

# ASSAY_SUMMARY: protein stability index of a GFP-peptide fusion (GPS, HEK-293T) (PSI 1-6); higher = more stable
# EXPERIMENTAL_CONTEXT: treatment: MLN4924 1 uM, 8 h; c terminus: a fixed tail appended
Kindly state protein stability index for each of the entries shown.

Return reported protein stability index; argument: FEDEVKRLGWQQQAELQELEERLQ [MTUS2] 4.28

Repeat with PCVAESPTVHVEVHQRGSSTAKKE [TRIP13] 5.35

How about this sequence: TKVQKKSLLLKKPLRVDLILENTS [NOP53] 2.84

Another sequence: DAATTDELSSLGSDSEANGFAERR [TBC1D10A] 5.42

// query: SKTVTSTMLGVFREDPKTREEFLT [GCH1] 4.11

Try this sequence next: PRRCHSAPPQGSCGDELPWTLQRR [PLEKHN1] 4.7

Would you mind doing VGVDGVRAFLQTYSHEVSLTADSR [PCDHGA10] as well? 2.61

Record: PEYTYGISNIDTTIEGTSDDLTVV [MFF] 4.56

# iterate: ASDGSDFTFLRPLSVQQPTALALE [PCDHGC5] 3.82

Repeat with CFKAAFLDFKDLLESEDWEEDNWD [TEX19] 3.24

Now consider CAACKTPIRNRAFYMEEGVPYCER [PDLIM7] and answer again. 3.38

And then STEDMERALSEYLAVFARCLAGCE [P3H4] , what is it? 3.37

Entry to check: RVPSFESFEDDCSQSLCLNKPTMS [ETS2] 4.55

Subsequent entry: WALLCLGLLLPGGGAAWSIGAAPF [EMID1] 3.22

Okay, and TAYSRLNETQPIDLSGLPLQSSKN [RNF180] ? 3.86

Would you mind doing DALDSEGRDSEGPAEGEGRLGRCM [KCNG1] as well? 5.53

Next entry: ELFRIGGKSPDTNYLFMGDYVDRG [PPP2CA] 2.48

AEGAVPETQTLTGWSKGFIGMHRE [RHOBTB1] ? 4

Now the sequence ELFRLRGIKAQVALRLAELARRRR [NOP53] 2.55

Now the same for DCIFDKFECAWNGSDSVIMTGAYN [PPP2R2C] 2.74

Param item: LSTADGKAFADPEVLRRLTSSVSC [ANKRD17] 3.69

Entry to check: LDHLSLGEEPVPHQQVEEALSFTL [NEK8] 4

Would you mind doing LSPMTASSFLSFAELFSYVLQDRA [FEM1A] as well? 2.26

Try the sequence RREVAKTVFCLVVIFALCWFPLHL [EDNRA] 2.53

Okay, and LEEKDRVLKKQDAFYKEQLARLEE [CHCHD3] ? 5.17

LLAKMFGAKDSELASQNKPLWQCY [PDS5B] ? 2.3

Can you check LKKKHQLLEDARRKGMPFAQWDGP [PPFIA4] next? 3.31

---

# ASSAY_SUMMARY: protein stability index of a GFP-peptide fusion (GPS, HEK-293T) (PSI 1-6); higher = more stable
# EXPERIMENTAL_CONTEXT: treatment: MLN4924 1 uM, 8 h; c terminus: a fixed tail appended
Consider the following sequences; for each one, report its protein stability index.
Just the number, please.

// query protein stability index value for entry PASAPGEPRQRRLLLLDLLALYTP [ANKRD9] 2.02

Another sequence: RSHSREPRAERKCPRIAPADSGRY [ELOA2] 4.25

CGRSEVRPVAPRRPRDAVGQRGAQ [SMAD6] ? 4.57

What about this sequence? RITKDNRRHCQACRLKRCVDIGMM [VDR] 2.68

Same question, PDQAYDFLLKFLLVGDRDVGKSEI [RAB40A] this time 2.35

Param item: NGINLFDTAEVYAAGKAEVVLGNI [KCNAB2] 3

One more sequence: GIVVWNMDVERQETPEWLDSDSCQ [WDFY2] 3.5

Now this one: LSRLQRVKFCLLGALLAPIRVLLA [LPCAT4] 3.58

Same for SCHGYTLPGACNIPANVSNCNWFC [KRT33B] 2.42

Queued: EYLIRLFQEWEAHRNLSQLPNFAF [TCF25] 2.39

How about this sequence: TFTEHPMKYTSEKFLEICKLSGFM [TPRG1] 2.22

What would you report for GKETLTPSELRDLVTQQLPHLMPS [S100A14] ? 3.99

Another sequence to check: AMRAGVLADDHLIEVNGENVEDAS [PDZK1] 5.3

---

# ASSAY_SUMMARY: protein stability index of a GFP-peptide fusion (GPS, HEK-293T) (PSI 1-6); higher = more stable
# EXPERIMENTAL_CONTEXT: treatment: MLN4924 1 uM, 8 h; c terminus: a fixed tail appended
Rule: protein stability index of 3 or more gives t; anything lower gives f.

Hello, I need to know if KAILDAEPGPRPALQPSPSIRLPL [TBC1D10A] has measured protein stability index not below 3. Thanks! t

Follow-up item: IETGENVTGMELEFKRLASSKAHT [PTPRD] t

Next sequence: TYRSLLESEDCKLPSNPCATTNAC [KRT33B] t

Then this sequence: ATGKHYGASSCDGCKGFFRRSVRK [HNF4A] t

Now give it for HGDPIPKVEFTEEEIKTWGTVFQE [TPH1] too. t

How about this sequence: RDSLSHLVPALRLPGRKLVSSAVS [INTS4] t

Also GRRAATALLWLSCSIALLRALATS [GNAS] , if possible. f

Then what about the sequence YKFDPKTKRILTLQKANSWFNCRK [MMP1] ? f

What about RAEGTDIPTVKPLKPRPEPPKKPS [ZC2HC1A] ? t

Entry IEAEGATAPLTELLHSRNEGVATY [CTNNB1] please t

Query ERVWALAQEKAADVQARLNRSDHG [FCHSD1] next t

Try this sequence next: DLNIQLLKDGYRLDEIPDDEDLDL [FAM219A] t

And the next one, IDSSSSWWTNWVIPAISAVAVALM [CYB5A] ? f

Also KRKRVKQRINTYVFVGNQLIPQPL [PCMTD1] ? f

Similarly, LLLLQVSSSYAGQFRVIGPRHPIR [MOG] ? f

Request: LIGLPPEDDWPRDVSLPRGAFPPR [CDK4] t

Note, next up: RAYDLLRAASENSQDALRVVSTSG [IKZF1] f

Let us now turn to NASTLRTINIKCHVHDPHGQVIWG [FBXO39] f

Entry to check: SLVAPLLLELAGEVTDTGDPIVRP [MYORG] t

Further, for KAREKDGKGRTASPINSPARGTPS [FSD1] ? t

Likewise for HMNVEALPEWISCLIQKAQWTVGK [RNF180] ? f

Try RPGATAVPTPLTNVQILLPVGEPV [FCHO1] next. t

Follow-up item: HSPFSSESRALSTSSNLGSQYQCE [TBX5] t

Quick one: TETQRLGLAMALEPNTTFLRKSLK [FANCE] t

Next entry: RPHVHKQTEKTTRVRTVLNEKQLH [ISL2] t

---

# ASSAY_SUMMARY: protein stability index of a GFP-peptide fusion (GPS, HEK-293T) (PSI 1-6); higher = more stable
# EXPERIMENTAL_CONTEXT: treatment: DMSO; c terminus: a fixed tail appended
Would you kindly list protein stability index for each of these sequences?
The reply should be a number, written without any unit.

Bench note: what protein stability index did SGGELFDFLAEKESLTEDEATQFL [DAPK3] show? 4.84

Thanks! And KAREKDGKGRTASPINSPARGTPS [FSD1] ? 4.92

Please give the result for ASIPEHLAYGSVITVKNLRMAIGY [POMT2] too. 2.41

Cool, now IFNYMRLGSTKLSDKDKAVGIFNT [OR3A1] 2.1

Try this sequence too: GVAVGDWVLSIDGENAGSLTHIEA [PDLIM7] 3.03

Can you handle DPDGEEGSSIPWNHLPDPEIFRQR [ZNF24] next? 4.97

And PASAPGEPRQRRLLLLDLLALYTP [ANKRD9] ? 2.25

Param item: RSHSREPRAERKCPRIAPADSGRY [ELOA2] 4.09

What do you have for ADRLVRVHGDPAVWWVSQFVKYLI [FUT8] ? 2.25

Try the sequence QLVEMTGLSPRVIRVWFQNKRCKD [ISL2] 2.47

What do we get for LWIKFFAAGELESMGFSARYNFTP [NETO1] ? 2.63

And EEEKILRVKLEEDPDGEEGSSIPW [ZNF24] ? 5.56

Another sequence to look at: KSLEGGGTAFDAETDSEMNSQESR [SMG5] 5.5
